The reported measurements were obtained from PubChem BioAssay (NCI).

List of growth values.
# Tested on: DU-145 prostate
# method.description: NCI-60 one-dose screen, 48 h (100 = growth as untreated, 0 = no growth, -100 = all killed)
# applied.conditions: 10 µM unless noted
Compounds without any hit were thinned out: in the full panel of roughly 83,000, 20% have a hit. The source made the active and inactive calls. The calls were made as follows: active = growth percent below 10; inactive = the rest.

Exam item: Would you kindly share the measured growth for `CN(C)c1ccc(-n2nc3ccccc3n2)cc1` ?
Marked response: 101% (inactive)

***
Exam item: Would you kindly share the measured growth for `CN(C)CCC(=O)Nc1ccc(-n2cc(-c3cccc(NC(=S)Nc4cccc(-c5cn(-c6ccc(NC(=O)CCN(C)C)cc6)nn5)c4)c3)nn2)cc1` ?
Marked response: 115% (inactive)

Exam item: Another molecule to look at: CC1=C([Se]CC(OC(=O)[C@@H](CSSC(C)(C)C)NC(=O)C(C)(C)C)C(=O)NCCCCCC(=O)OCc2ccccc2)C(=O)c2ccccc2C1=O (some centres undefined)
Marked response: 13.3% (inactive)

Exam item: Another molecule to look at: `FC(F)(F)c1ccc(-c2cnc(-c3nn[nH]n3)nc2NC2CCCCCC2)cc1`
Marked response: 64% [50 µM] (inactive)

Exam item: Another molecule to look at: CC12CCC3C(=CCc4cc(O)ccc43)C1CCC2=O (centres undefined)
Marked response: 115% (inactive)

Exam item: Another molecule to look at: `c1ccc(-c2oc(-c3ccccc3)c3ccccc23)cc1`
Marked response: 90.3% (inactive)

Exam item: Another molecule to look at: `COCCOCCOCCOCCOc1ccc2c(c1)C(=O)c1nc3ncccc3c(=O)n1-2`
Marked response: -95.1% (active)

Exam item: Another molecule to look at: `CCCCCN(CCCCC)CCCNc1c2c(nc3ccc(Cl)cc13)CCCC2`
Marked response: 66.6% (inactive)
